# SYSTEM_UNDER_TEST: human opioid μ receptor (Homo sapiens)
# Construct: host or cells: CHO cells
# Sequence (P35372 whole entry): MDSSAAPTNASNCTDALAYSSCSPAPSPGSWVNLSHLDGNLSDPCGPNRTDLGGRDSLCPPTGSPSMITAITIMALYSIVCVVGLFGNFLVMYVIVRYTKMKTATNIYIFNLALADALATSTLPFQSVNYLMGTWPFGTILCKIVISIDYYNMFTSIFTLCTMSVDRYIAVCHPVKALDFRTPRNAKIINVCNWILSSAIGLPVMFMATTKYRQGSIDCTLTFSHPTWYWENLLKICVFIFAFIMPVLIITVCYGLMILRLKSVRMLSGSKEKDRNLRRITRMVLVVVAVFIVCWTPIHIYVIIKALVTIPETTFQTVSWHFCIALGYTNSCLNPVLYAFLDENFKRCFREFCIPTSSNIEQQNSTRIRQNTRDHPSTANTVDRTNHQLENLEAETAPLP
# PROCEDURE_SUMMARY: Opioid receptor function test (Lance Ultra cAMP Kit), μ receptor
# Type: cell-based
# RUN_CONDITIONS: read-out: μ receptor EC50 value
pEC50: −log10 of the molar value. Counter-ions that a name gives are not always drawn.
PROPERTY_MEASURED: pEC50

IN: Recorded pEC50 for Cn1cccc(C(=O)N2C[C@H]3C[C@@]45CC[C@@H]2[C@@H]3[C@@]42CCN(CC3CC3)[C@@H]5Cc3ccc(O)cc32)c1=O [Example 31, hydrochloride] , please?
OUT: < 8.00
